Kindly supply the reported pIC50 values for the records listed here.
Biological target: Mitogen-activated protein kinase 10 (Homo sapiens, UniProt P53779)
Sequence (P53779 whole entry): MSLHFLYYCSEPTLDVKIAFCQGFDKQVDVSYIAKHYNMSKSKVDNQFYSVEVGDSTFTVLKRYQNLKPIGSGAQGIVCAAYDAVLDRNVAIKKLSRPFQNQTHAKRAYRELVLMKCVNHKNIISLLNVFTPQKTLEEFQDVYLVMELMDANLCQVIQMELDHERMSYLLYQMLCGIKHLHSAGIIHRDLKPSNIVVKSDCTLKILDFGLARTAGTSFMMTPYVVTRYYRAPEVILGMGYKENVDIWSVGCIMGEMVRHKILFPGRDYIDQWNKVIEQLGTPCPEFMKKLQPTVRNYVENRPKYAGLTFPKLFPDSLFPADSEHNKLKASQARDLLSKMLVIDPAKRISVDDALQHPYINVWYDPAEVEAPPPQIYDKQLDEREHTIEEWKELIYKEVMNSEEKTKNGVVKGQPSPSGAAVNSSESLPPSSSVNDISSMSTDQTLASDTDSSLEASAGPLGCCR
Assay: Inhibition of recombinant JNK3 after 60 mins by TR-FRET assay
One number for each entry, as −log10 of the molar value.

The examples below pair each entry with its known result.
* O=c1[nH]nc(-c2ccnc(NC3CC3)c2)n1-c1ccc2ccccc2c1 | 6.89
* Nc1cccc2ccc(-n3c(-c4ccnc(NC5CCOCC5)c4)n[nH]c3=O)cc12 | 7.03

List pIC50 for every entry below, keeping the order given.
1. O=C(Nc1cc(-c2n[nH]c(=O)n2-c2ccc3ccccc3c2)ccn1)C1CC1
2. O=c1[nH]nc(-c2ccnc(NC3CCCOC3)c2)n1-c1ccc2ccccc2c1 (centres undefined)
3. O=c1[nH]nc(-c2ccnc(NC3CCOCC3)c2)n1-c1ccc2cccc(Cl)c2c1
4. O=c1n(Cc2ccncc2)nc(-c2ccnc(NC3CCCCC3)c2)n1-c1ccc2ccccc2c1
5. Nc1ccc2cc(-n3c(-c4ccnc(NC5CCOCC5)c4)n[nH]c3=O)ccc2c1
6. O=c1n(C2CCOC2)nc(-c2ccnc(NC3CCOCC3)c2)n1-c1ccc2ccccc2c1 (centres undefined)
7. O=c1[nH]nc(-c2ccnc(NC3CCCCC3)c2)n1-c1ccc2ccccc2c1
8. O=c1n(Cc2ccccn2)nc(-c2ccnc(NC3CCOCC3)c2)n1-c1ccc2ccccc2c1

Result:
1. 6.92
2. 7.49
3. 7.85
4. 7.54
5. 6.02
6. 7.04
7. 7.62
8. 7.27
